assay: in vitro; conditions: human, hela cells, % viability
Label Criterion met when viability at 28.5 h, 10 µM is strictly below 90%; at or above that, label Criterion not met.

1. CCn1c2cc(C)oc2c2cnn(CC(=O)N(C)C)c(=O)c21	Criterion met
2. Cc1cnc2[nH]c(C3CCN(C(=O)c4scnc4C)CC3)cc2c1	Criterion not met

Below 90% on viability at 28.5 h, 10 µM? Entry CC(CCCC(C)(C)O)Nc1cc(N2CCN(C)CC2)n2nccc2n1 (stereo not shown)
Criterion not met

Below 90% on viability at 28.5 h, 10 µM? Entry Cc1ccc(OCc2ccccc2)c(Br)c1
Criterion not met

----------
assay: in vitro; conditions: human, hela cells, % viability
Measurement label: viability at 28.5 h, 10 µM (%)
Express your answer in %, writing the number without its unit.

1) O=C(c1cc(-c2ccc(Cl)cc2)nc2ccccc12)n1nnc2ccccc21	101
2) Cc1cc(C)c2nc(-c3ccccn3)cc(C(=O)Nc3ccc(S(=O)(=O)Nc4cc(C)on4)cc3)c2c1	105
3) O=C1N(CN2CCN(C(c3ccccc3)c3ccccc3)CC2)c2ccccc2C12OCCO2	87.1

Form field viability at 28.5 h, 10 µM, entry c1cnc(N2CCN(CCN3CCOCC3)CC2)c(OCCN2CCOCC2)n1 : 105

Form field viability at 28.5 h, 10 µM, entry CCn1c(SCC(=O)Nc2ccc(C(=O)O)cc2)nnc1-c1ccccc1C : 107

Form field viability at 28.5 h, 10 µM, entry O=C1S/C(=C\c2ccc(F)c(Br)c2)C(=O)N1c1cccc(Cl)c1 : 87.7

Form field viability at 28.5 h, 10 µM, entry O=C(NCCCC1CCOC1)c1[nH]nc2c1CCCCC2 (centres unmarked) : 88.7

Form field viability at 28.5 h, 10 µM, entry Cc1nc(NS(=O)(=O)c2c(C)noc2C)sc1C(=O)Nc1ccc(F)cc1 : 113

Form field viability at 28.5 h, 10 µM, entry CCOc1ccc(-c2cc(C(=O)Nc3cccc(C(=O)O)c3)no2)cc1 : 93.9

Form field viability at 28.5 h, 10 µM, entry c1ccc2c(c1)ccn2Cc1ccc(-c2nccnc2-c2nnn[nH]2)cc1 : 107

----------
test: in vitro; conditions: human, hela cells, % viability
Measurement label: viability at 28.5 h, 10 µM
Units required after the number.

1. Cc1cn(C2CC(O)C(CO)O2)c(=O)[nH]c1=O (stereo not shown)	93.3%
2. O=CN1CCc2c([nH]c3ccc(F)cc23)C12CCN(Cc1cccc(Oc3ccc(F)cc3)c1)CC2	96.4%

Next up:
Form field viability at 28.5 h, 10 µM, entry CC1(C)CN(c2ccc(Cl)cn2)C1=O : 93.6%

----------
Recorded viability at 28.5 h, 10 µM by entry
test: in vitro; settings: human, hela cells, % viability
Units required after the number.

Form field viability at 28.5 h, 10 µM, entry Cn1c(SCC(=O)Nc2ccc(Br)cc2C(F)(F)F)nnc1-c1ccncc1 : 84.4%

Form field viability at 28.5 h, 10 µM, entry O=C1CC(C(=O)NCc2ccc(-c3csnn3)cc2)c2ccccc21 (stereo not shown) : 93.1%

----------
test: in vitro; conditions: human, hela cells, % viability
Recorded viability at 28.5 h, 10 µM by entry
Units required after the number.

Known results for compounds:
1) Nc1ccc2cc3ccc(N)cc3nc2c1 [CBK024003G]	71%
2) Cc1ccc(S(=O)(=O)c2ccc(C)c(S(=O)(=O)NC3CCCCC3)c2)cc1S(=O)(=O)NC1CCCCC1 [CBK261653]	90%
3) COc1ccc(Br)cc1CNCc1ccc(C(=O)O)cc1 [CBK269449C]	96.2%

Form field viability at 28.5 h, 10 µM, entry CN1CCOC(CNCc2ccc(OCC(N)=O)cc2)C1 (stereo not shown) [CBK304830] : 102%

Form field viability at 28.5 h, 10 µM, entry O=C(COC(=O)C1CCC(N2C(=O)c3ccccc3C2=O)CC1)c1ccc(-c2ccccc2)cc1 (stereo not shown) [CBK264789] : 90.4%

Form field viability at 28.5 h, 10 µM, entry Cc1[nH]c2ccccc2c1C(=O)CSc1nncc2ccccc12 [CBK297912] : 92.1%

Form field viability at 28.5 h, 10 µM, entry O=S(=O)(c1ccc(OC(F)(F)F)cc1)N1CCc2ccccc21 [CBK044279] : 96.7%

Form field viability at 28.5 h, 10 µM, entry Cc1sc2nc(NCCO)nc(O)c2c1C [CBK018257] : 86.9%

Form field viability at 28.5 h, 10 µM, entry COc1ccc(CC(=O)Nc2nc(OCC(F)(F)F)cnc2-c2ccc(Cl)cc2Cl)cc1 [CBK145359] : 91%

Form field viability at 28.5 h, 10 µM, entry CN(C(=O)C1CCc2nn(C)c(=O)n2C1)C1Cc2ccccc2C1 (stereo not shown) [CBK307108] : 107%

Form field viability at 28.5 h, 10 µM, entry Cc1ccc(CNC(=O)CN(c2cccc(C(F)(F)F)c2)S(=O)(=O)c2ccc(C)cc2)cc1 [CBK263997] : 89.3%

Form field viability at 28.5 h, 10 µM, entry C[C@@H]1CN[C@@H](C)CN1Cc1cc(NS(=O)(=O)c2ccccc2Cl)cc2ccoc12 [CBK107211T] : 98.6%

Form field viability at 28.5 h, 10 µM, entry O=C(CN1C(=O)c2ccccc2S1(=O)=O)N(Cc1ccccc1)Cc1ccccc1 [CBK265982] : 107%

Form field viability at 28.5 h, 10 µM, entry CC(C)c1ccc(NC(=O)CSc2n[nH]c(=O)n2-c2ccccc2)cc1 [CBK299826] : 89.3%

Form field viability at 28.5 h, 10 µM, entry Cc1cc2nc(-c3cc(NC(=O)c4cccc([N+](=O)[O-])c4)ccc3O)oc2cc1C [CBK262855] : 103%

Form field viability at 28.5 h, 10 µM, entry Cc1cnc2c(c1)cc(C1CCOCC1)n2CC(=O)NC1CCCC1 [CBK284755] : 103%

Form field viability at 28.5 h, 10 µM, entry Cc1ccc(OCC(=O)NC(=S)Nc2cc(C(=O)O)ccc2C)cc1 [CBK265000] : 96.8%

Form field viability at 28.5 h, 10 µM, entry Cc1cc(C(C)(C)C)cc(C)c1COC(=O)c1ccncc1 [CBK296995] : 112%

Form field viability at 28.5 h, 10 µM, entry CCc1cccc(C)c1NC(=O)CN(c1ccc(Br)c(C)c1)S(C)(=O)=O [CBK267935] : 102%
